Target: BChE (Homo sapiens)
Construct: purchased cloud-clone corp., purchased through BIOCOM Africa (Pty) Ltd. RPC348Hu0 2_100
Sequence (P06276 29-602): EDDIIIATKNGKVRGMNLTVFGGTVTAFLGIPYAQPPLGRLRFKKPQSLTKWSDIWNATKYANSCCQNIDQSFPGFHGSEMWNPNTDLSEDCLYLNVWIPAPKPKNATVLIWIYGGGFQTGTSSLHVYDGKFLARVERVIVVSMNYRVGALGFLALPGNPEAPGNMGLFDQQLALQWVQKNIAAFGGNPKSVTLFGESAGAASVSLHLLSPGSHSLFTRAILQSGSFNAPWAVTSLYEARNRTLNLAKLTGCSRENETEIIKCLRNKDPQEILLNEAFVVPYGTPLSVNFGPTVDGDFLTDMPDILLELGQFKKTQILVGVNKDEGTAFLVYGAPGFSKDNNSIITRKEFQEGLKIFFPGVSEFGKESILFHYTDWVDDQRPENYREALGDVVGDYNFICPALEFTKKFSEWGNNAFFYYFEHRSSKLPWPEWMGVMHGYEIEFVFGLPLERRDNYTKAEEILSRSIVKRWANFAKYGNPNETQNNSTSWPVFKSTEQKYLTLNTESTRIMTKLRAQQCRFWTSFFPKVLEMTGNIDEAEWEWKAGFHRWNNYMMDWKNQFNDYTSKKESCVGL
Assay: biochemical
Conditions: Selectivity index IC50 (AChE)/IC50 (BChE)
# SI AChE/BChE >= 0.5 gives label 1, anything below gives label 0

Enquiry: In plain terms: is recorded SI AChE/BChE at least 0.5 for O=c1c(C=NNc2ccc(C(F)(F)F)cc2)coc2cc3oc(-c4ccc(Cl)cc4)cc3cc12 [Compound 3e] ?
Return: label 1

Enquiry: In plain terms: is recorded SI AChE/BChE at least 0.5 for Cc1ccc(-c2cc3cc4c(=O)c(C=NNc5ccc(C(F)(F)F)cc5)coc4cc3o2)cc1 [Compound 3h] ?
Return: label 0

Enquiry: In plain terms: is recorded SI AChE/BChE at least 0.5 for Cc1ccc(-c2cc3cc4c(=O)c(C=O)coc4cc3o2)cc1 [Compound 2h] ?
Return: label 0

Enquiry: In plain terms: is recorded SI AChE/BChE at least 0.5 for O=c1c(C=NNc2ccc(C(F)(F)F)cc2)coc2cc3oc(C4=CCCCC4)cc3cc12 [Compound 3i] ?
Return: label 1

Enquiry: In plain terms: is recorded SI AChE/BChE at least 0.5 for COc1ccc(-c2cc3cc4c(=O)c(C=O)coc4cc3o2)cc1 [Compound 2f] ?
Return: label 1

Enquiry: In plain terms: is recorded SI AChE/BChE at least 0.5 for O=c1c(C=NNc2ccc(C(F)(F)F)cc2)coc2cc3oc(-c4cccc(F)c4)cc3cc12 [Compound 3b] ?
Return: label 1

Enquiry: In plain terms: is recorded SI AChE/BChE at least 0.5 for COc1cc(OC)cc(-c2cc3cc4c(=O)c(C=O)coc4cc3o2)c1 [Compound 2g] ?
Return: label 0

Enquiry: In plain terms: is recorded SI AChE/BChE at least 0.5 for O=c1c(C=NNc2ccc(C(F)(F)F)cc2)coc2cc3oc(-c4cccc(Cl)c4)cc3cc12 [Compound 3d] ?
Return: label 1
